I'd be grateful if you could share measured melting point for these entries.

Could you share which melting point value was measured for CSc1ccc(Nc2c(C(=O)NOCCO)ccc(F)c2F)c(F)c1 [Example 26] ?
108 to 111 °C

Proceed to O=C(NOCCO)c1ccc(F)c(F)c1Nc1ccc(CO)cc1F [Example 18]
108 to 110 °C

And for CCCc1ccc(Nc2c(C(=O)NOCCO)ccc(F)c2F)c(F)c1 [Example 29] ?
144 to 146 °C

Now the compound O=C(NOCCO)c1ccc(F)c(F)c1Nc1ccc(CCCCO)cc1F [Example 21]
65 to 69 °C

Same for C=CCc1ccc(Nc2c(C(=O)NOCCO)ccc(F)c2F)c(F)c1 [Example 6]
173 to 177 °C

Subsequent entry: CCc1ccc(Nc2c(C(=O)NOCCO)ccc(F)c2F)c(Cl)c1 [Example 2]
142.5 to 145 °C

Entry O=C(NOCCO)c1ccc(F)c(F)c1Nc1ccc(CC(O)CO)cc1F (stereo not drawn) [Example 22] please
118 to 120 °C

Entry to check: CCC(C)(O)C#Cc1ccc(Nc2c(C(=O)NOCCO)ccc(F)c2F)c(F)c1 (stereo not drawn) [Example 13]
127 to 131 °C

Do the same for O=C(NOCCO)c1ccc(F)c(F)c1Nc1ccc(C#CCCO)cc1F [Example 11] please
126 to 129 °C

C=Cc1ccc(Nc2c(C(=O)NOCCO)ccc(F)c2F)c(F)c1 [Example 4] ?
134 to 138 °C

Subsequent entry: CS(=O)(=O)c1ccc(Nc2c(C(=O)NOCCO)ccc(F)c2F)c(F)c1 [Example 28]
85 to 88 °C

C#Cc1ccc(Nc2c(C(=O)NOCCO)ccc(F)c2F)c(Cl)c1 [Example 8] , same question.
155 to 157 °C

And Cc1ccc(Nc2c(C(=O)NOCCO)ccc(F)c2F)c(F)c1 [Example 3] ?
134 to 139 °C

Moving on to O=C(NOCCO)c1ccc(F)c(F)c1Nc1ccc(CCCO)cc1F [Example 20]
115 to 116 °C

CCc1ccc(Nc2c(C(=O)NOC(CO)CO)ccc(F)c2F)c(F)c1 [Example 33] , same question.
91 to 93 °C

Now the same for NCCCc1ccc(Nc2c(C(=O)NOCCO)ccc(F)c2F)c(F)c1 [Example 14]
178 to 181 °C

Try this compound next: O=C(NOCCO)c1ccc(F)c(F)c1Nc1ccc(C#CCO)cc1F [Example 10]
169 to 172 °C

Now the same for CC(C)(O)C#Cc1ccc(Nc2c(C(=O)NOCCO)ccc(F)c2F)c(F)c1 [Example 12]
139 to 142 °C

###

Please provide measured melting point for the entries that follow.

Suppose we examine the compound "NCC#Cc1ccc(Nc2c(C(=O)NOCCO)ccc(F)c2F)c(F)c1" ; what melting point value has been reported?
72 to 76 °C

Please do the same for "O=C(NOCCO)c1ccc(F)c(F)c1Nc1ccc(CO)cc1" as well.
73 to 77 °C

Now this one: "CCSc1ccc(Nc2c(C(=O)NOCCO)ccc(F)c2F)c(F)c1"
129 to 132 °C

Now consider "CNCCCc1ccc(Nc2c(C(=O)NOCCO)ccc(F)c2F)c(F)c1" and answer again.
112 to 116 °C

Also "C#Cc1ccc(Nc2c(C(=O)NOCCO)ccc(F)c2F)c(F)c1" ?
158 to 161 °C

###

Tested on: MEK
Protocol Description: Cellular assay for measuring MEK inhibition (inhibition of ERK phosphorylation)
Type: cell-based
Condition Context: inhibition of phosphorylation of MAP kinase (ERK) in murine colon 26 (C26) carcinoma cells; 1 hour at 37° C.; Western blotting
Measurement Type: pIC50
Scale explanation: pIC50 corresponds to minus log10 of a concentration expressed in moles per litre.

Looking for the measured pIC50 of "O=C(NOCCO)c1ccc(F)c(F)c1Nc1ccc(CCCCO)cc1F" , can you help?
6.10

Please do the same for "CS(=O)(=O)c1ccc(Nc2c(C(=O)NOCCO)ccc(F)c2F)c(F)c1" as well.
6.14

Note, next up: "C#Cc1ccc(Nc2c(C(=O)NOCCO)ccc(F)c2F)c(Cl)c1"
8.40

Also "CCc1ccc(Nc2c(C(=O)NOCCO)ccc(F)c2F)c(F)c1" , if possible.
8.55

Same question, "CSc1ccc(Nc2c(C(=O)NOCCO)ccc(F)c2F)c(F)c1" this time
9.07

Similarly, "COCCCc1ccc(Nc2c(C(=O)NOCCO)ccc(F)c2F)c(F)c1" ?
7.66

Now the same for "CCCCc1ccc(Nc2c(C(=O)NOCCO)ccc(F)c2F)c(F)c1"
6.72

Can you handle "CC(C)(O)CCc1ccc(Nc2c(C(=O)NOCCO)ccc(F)c2F)c(F)c1" next?
6.70

###

Tested on: MEK
Protocol Description: Cellular assay for measuring MEK inhibition (inhibition of ERK phosphorylation)
Assay type: cell-based
Condition Context: inhibition of phosphorylation of MAP kinase (ERK) in murine colon 26 (C26) carcinoma cells; 1 hour at 37° C.; Western blotting
pIC50: −log10 of the molar value.
For each record, write down the corresponding pIC50.

Record request: pIC50 value, item "CN(C)CCCc1ccc(Nc2c(C(=O)NOCCO)ccc(F)c2F)c(F)c1"
< 6.00

Try the molecule "O=C(NOCCO)c1ccc(F)c(F)c1Nc1ccc(CO)cc1"
< 6.00

Moving on to "CC(C)(O)C#Cc1ccc(Nc2c(C(=O)NOCCO)ccc(F)c2F)c(F)c1"
< 5.52

Consider next the molecule "CNCCCc1ccc(Nc2c(C(=O)NOCCO)ccc(F)c2F)c(F)c1" in the same way.
< 6.00

And CCC(C)(O)C#Cc1ccc(Nc2c(C(=O)NOCCO)ccc(F)c2F)c(F)c1 (stereo not drawn) ?
< 6.00

Would you mind doing "NCCCc1ccc(Nc2c(C(=O)NOCCO)ccc(F)c2F)c(F)c1" as well?
< 6.00
